B1: GNB5 (parent)
chain: YYPSGDAFASGSDDATCRLYDLRA

Variants of: B1
Assay: protein stability index of a GFP-peptide fusion (GPS, HEK-293T) (PSI 1-6); higher = more stable;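 note: lentivirally expressed fusions sorted by FACS into six bins by GFP to DsRed ratio, PSI derived from sequencing read proportions per bin multiplied by bin number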
Settings: c terminus: a fixed tail appended
Could you label it label 1 if measured protein stability index is 2 or higher, and label 0 otherwise?

# Var, Label class
measured = [
    ("R18G", "label 1"),
    ("D13M", "label 0"),
    ("Y2I", "label 1"),
    ("C17P", "label 1"),
    ("Y1H", "label 1"),
    ("D6W", "label 0"),
    ("D13I", "label 1"),
    ("S4F", "label 1"),
    ("A7D", "label 1"),
    ("D21I", "label 1"),
    ("F8H", "label 1"),
    ("S10H", "label 1"),
    ("A9M", "label 1"),
    ("D14Q", "label 1"),
    ("R18V", "label 1"),
    ("A7C", "label 1"),
    ("D6N", "label 1"),
    ("D13A", "label 0"),
    ("P3H", "label 1"),
]

The reported measurements were obtained from the supplement of paper PMC10567573.
